Ref: ChEMBL document CHEMBL5058577

# Test system: HEK-293T
# protocol.text: Multiplex assay against HEK293T
# Format: toxicity, cell-based
# measurement.parameters: human, 24 h, 10 µM, compound concentration 10 uM, replicate 1

compound	Population Pyknosed Nuclei (%)
COc1cc(OC2CCN(C(C)=O)CC2)ccc1C(=O)N1CCC(N2C(=O)OCc3ccccc32)CC1	13%
CC(C)C[C@H](CO)Nc1nc(S[C@@H](C)c2ccccc2)nc2nc(N)sc12	17%
OCCCNc1cc(-c2ccnc(Nc3cccc(Cl)c3)n2)ccn1	38%
CN1C[C@H](C(=O)N[C@]2(C)O[C@@]3(O)[C@@H]4CCCN4C(=O)[C@H](Cc4ccccc4)N3C2=O)C[C@@H]2c3cccc4[nH]cc(c34)C[C@H]21.CS(=O)(=O)O [DIHYDROERGOTAMINE MESYLATE]	13%
O=C(O)CCC/C=C\CC1C(O)CC(O)C1/C=C/C(O)COc1cccc(Cl)c1 (stereo not drawn)	10%
Cc1cc(=O)n(C)c2cc(N3C(=O)CC[C@H](NS(=O)(=O)CC(C)C)[C@H]3c3ccc(Cl)cc3)ccc12	19%
COC(c1ccccc1)(c1ccccc1)[C@H](Oc1nc(C)cc(C)n1)C(=O)O	15%
C[C@H](NC(=O)CNC(=O)c1cccc(Cl)c1)c1ccccc1	12%
